# test.name: molar heat capacity at constant pressure
# experimental.setup: 308.15 K; 101.33 kPa; Liquid; Small sample (50 mg) DSC
reported.metric: molar heat capacity at constant pressure (J/K/mol)
Write the value in J/K/mol as a bare number.

Dear colleague, I am looking for the recorded molar heat capacity at constant pressure of the following compound: CCOS(=O)(=O)[O-].CCn1cc[n+](C)c1 [1-ethyl-3-methylimidazolium ethyl sulfate]
399.3

Input CCCCn1cc[n+](C)c1.O=S(=O)([O-])C(F)(F)F [1-butyl-3-methylimidazolium trifluoromethanesulfonate]
429.5

More entries:
Dear colleague, I am looking for the recorded molar heat capacity at constant pressure of the following compound: `C[N+](=O)[O-]`
107.7

Input CCCCn1cc[n+](C)c1.F[B-](F)(F)F [1-butyl-3-methylimidazolium tetrafluoroborate]
368.7

Input CCCCCCn1cc[n+](C)c1.F[B-](F)(F)F [1-hexyl-3-methylimidazolium tetrafluoroborate]
433

Input CCn1cc[n+](C)c1.O=S(=O)([O-])C(F)(F)F [1-ethyl-3-methylimidazolium trifluoromethanesulfonate]
367.4

Input CCCCn1cc[n+](C)c1.COS(=O)(=O)[O-] [1-butyl-3-methylimidazolium methyl sulfate]
420.9

Cited source for all entries: the NIST ThermoML archive (doi:10.1016/j.jct.2008.09.002)
